assay.protocol: Partition coefficient, log P at pH 7.4
Assay type: physicochemical
measurement.parameters: octanol/water
observable: logD

These solved cases illustrate the format of a correct answer.
Per the record, CC(C)N1CC(c2nc(C(=O)NCc3ccc(F)cc3)c(O)c3ncccc23)CC1=O (stereo unspecified) has logD of 2.7

Per the record, CN1CC(c2nc(C(=O)NCc3ccc(F)cc3S(C)(=O)=O)c(O)c3ncccc23)CC1=O (stereo unspecified) has logD of 1.6

Per the record, CCN1CC(c2nc(C(=O)NCc3ccc(F)cc3)c(O)c3ncccc23)CC1=O (stereo unspecified) has logD of 2.7

Per the record, CN(C)C(=O)CN1CC(c2nc(C(=O)NCc3ccc(F)cc3)c(O)c3ncccc23)CC1=O (stereo unspecified) has logD of 1.8

Give me logD for each of these compounds, listed below.
1. CCN1CC(c2nc(C(=O)NCc3ccc(F)cc3S(C)(=O)=O)c(O)c3ncccc23)CC1=O (stereo unspecified)
2. CN1CC(c2nc(C(=O)NCc3ccc(F)cc3)c(O)c3ncccc23)CC1=O (stereo unspecified)

[out]
[1.9, 2.3]

----------
Exercise: for every item that follows, state its recorded half-life.
assay.protocol: Half life in rat at 2 mg/kg, iv
Assay type: ADME, organism-based
Parameters: dose 2 mg/kg, route intravenous
measurement.parameters: in vivo
One number for each entry, in h.

These solved cases illustrate the format of a correct answer.
Per the record, CN1CC(c2nc(C(=O)NCc3ccc(F)cc3S(C)(=O)=O)c(O)c3ncccc23)CC1=O (stereo not drawn) has half-life of 0.67

Per the record, CN1CC(c2nc(C(=O)NCc3ccc(F)cc3)c([O-])c3ncccc23)CC1=O.[Na+] (stereo not drawn) has half-life of 1.3

Others:
Per the record, CN(C)C(=O)CN1CC(c2nc(C(=O)NCc3ccc(F)cc3)c([O-])c3ncccc23)CC1=O.[Na+] (stereo not drawn) has half-life of 3.4
